TEST TARGET: p-AXL (Homo sapiens)
TEST METHOD NOTES: Axl phosphorylation inhibition ELISA in HEK293T cells transfected with NanoLuc-tagged AXL
CONDITIONS USED: 1 h compound incubation, media (OptiMEM)
EXPERIMENTAL ENDPOINT: IC50

Can you share its IC50? I mean this molecule: CC(C)(C#N)c1cccnc1-c1ccc(-c2c[nH]c3ncc(-c4ccc5c(c4)CC[C@@H](N4C6COCC4C6)CC5)cc23)cc1
< 100 nM

Likewise for Cc1cc(C)c(-c2ccc(-c3n[nH]c4ncc(-c5ccc6c(c5)CC[C@@H](N5C7COCC5C7)CC6)cc34)cc2)cn1 ?
100 to 1000 nM

Note, next up: c1cncc(-c2ccc(-c3c[nH]c4ncc(-c5ccc6c(c5)CC[C@@H](N5C7COCC5C7)CC6)cc34)cc2)c1
100 to 1000 nM

---

For each record, write down the corresponding pIC50.
TEST TARGET: p-AXL (Homo sapiens, UniProt P30530)
Sequence (P30530 26-894): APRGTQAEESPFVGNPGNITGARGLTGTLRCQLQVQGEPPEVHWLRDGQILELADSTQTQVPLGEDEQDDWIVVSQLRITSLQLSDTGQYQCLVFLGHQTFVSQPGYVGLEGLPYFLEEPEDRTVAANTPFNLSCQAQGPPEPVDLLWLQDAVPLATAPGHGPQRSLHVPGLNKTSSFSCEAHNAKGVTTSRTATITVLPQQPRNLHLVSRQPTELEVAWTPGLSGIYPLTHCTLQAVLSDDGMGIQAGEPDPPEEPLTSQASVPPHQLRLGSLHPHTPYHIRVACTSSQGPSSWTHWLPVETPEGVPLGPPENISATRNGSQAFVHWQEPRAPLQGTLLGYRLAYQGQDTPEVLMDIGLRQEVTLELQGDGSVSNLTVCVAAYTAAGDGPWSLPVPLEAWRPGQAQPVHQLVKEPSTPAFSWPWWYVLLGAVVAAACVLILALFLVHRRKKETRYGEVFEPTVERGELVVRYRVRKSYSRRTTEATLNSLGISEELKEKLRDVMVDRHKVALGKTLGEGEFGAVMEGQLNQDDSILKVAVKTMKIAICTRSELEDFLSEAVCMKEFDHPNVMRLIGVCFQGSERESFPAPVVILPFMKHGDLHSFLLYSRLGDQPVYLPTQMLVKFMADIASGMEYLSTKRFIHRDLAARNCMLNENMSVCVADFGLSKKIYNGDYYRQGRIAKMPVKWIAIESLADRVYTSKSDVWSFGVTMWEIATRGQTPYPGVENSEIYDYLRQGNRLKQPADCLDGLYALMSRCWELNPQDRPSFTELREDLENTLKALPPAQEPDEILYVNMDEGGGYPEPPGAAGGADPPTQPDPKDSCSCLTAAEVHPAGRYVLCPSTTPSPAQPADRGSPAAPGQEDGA
TEST METHOD NOTES: Axl phosphorylation inhibition ELISA in HEK293T cells transfected with NanoLuc-tagged AXL
CONDITIONS USED: 1 h compound incubation, media (OptiMEM)
pIC50: −log10 of the molar value.

Need pIC50 of CS(=O)(=O)c1ccccc1-c1ccc(-c2c[nH]c3ncc(-c4ccc5c(c4)CC[C@@H](N4C6COCC4C6)CC5)cc23)cc1 , thanks.
6.00 to 7.00

Same for N#Cc1cccnc1-c1ccc(-c2c[nH]c3ncc(-c4ccc5c(c4)CC[C@@H](N4C6COCC4C6)CC5)cc23)cc1
> 7.00

Thanks! And Cc1cc(C)c(-c2ccc(-c3c[nH]c4ncc(-c5ccc6c(c5)CC[C@@H](N5C7COCC5C7)CC6)cc34)cc2)cn1 ?
6.00 to 7.00

Proceed to Cc1ccc(-c2ccc(-c3c[nH]c4ncc(-c5ccc6c(c5)CC[C@@H](N5C7COCC5C7)CC6)cc34)cc2)c(C)n1
6.00 to 7.00

Then this compound: Cc1cc(=O)n(C)nc1-c1ccc(-c2c[nH]c3ncc(-c4ccc5c(c4)CC[C@@H](N4C6COCC4C6)CC5)cc23)cc1
> 7.00

What do you get for Cc1ccc(C)c(-c2ccc(-c3n[nH]c4ncc(-c5ccc6c(c5)CC[C@@H](N5C7COCC5C7)CC6)cc34)cc2)n1 ?
> 7.00

Similarly, CN(C)C(=O)c1cccnc1-c1ccc(-c2c[nH]c3ncc(-c4ccc5c(c4)CC[C@@H](N4C6COCC4C6)CC5)cc23)cc1 ?
> 7.00

Same thing, different compound: c1ccc(-c2ccc(-c3c[nH]c4ncc(-c5ccc6c(c5)CC[C@@H](N[C@H]5CCCOC5)CC6)cc34)cc2)nc1
6.00 to 7.00

Record: Cc1cnc(-c2ccc(-c3c[nH]c4ncc(-c5ccc6c(c5)CC[C@@H](N5CCCC5)CC6)cc34)cc2)c(C)n1
6.00 to 7.00

Would you kindly repeat that for Cc1cccnc1-c1cccc(-c2c[nH]c3ncc(-c4ccc5c(c4)CC[C@@H](N4C6COCC4C6)CC5)cc23)c1 ?
> 7.00

Also, OC1(c2cccnc2-c2ccc(-c3c[nH]c4ncc(-c5ccc6c(c5)CC[C@@H](N5C7COCC5C7)CC6)cc34)cc2)CCC1 please.
> 7.00

And the next one, COCCOc1cccnc1-c1ccc(-c2c[nH]c3ncc(-c4ccc5c(c4)CC[C@@H](N4C6COCC4C6)CC5)cc23)cc1 ?
> 7.00

Again, but for Cc1ccc(C)c(-c2ccc(-c3n[nH]c4ncc(-c5ccc6c(c5)CC[C@@H](N5C7COC[C@H]5C7)CC6)cc34)nc2)n1
> 7.00

Moving on to the next compound: Cn1cnnc1-c1ccc(-c2n[nH]c3ncc(-c4ccc5c(c4)CC[C@@H](N4C6COCC4C6)CC5)cc23)cc1
> 7.00

Consider next the compound Cc1cc(C)c(-c2ccc(-c3c[nH]c4ncc(-c5ccc6c(c5)CC[C@@H](N5C7COCC5C7)CC6)cc34)cc2)nn1 in the same way.
> 7.00

Try CC(C)(O)c1cccnc1-c1ccc(-c2n[nH]c3ncc(-c4ccc5c(c4)CC[C@@H](N4C6COCC4C6)CC5)cc23)cc1 next.
> 7.00

Now the compound CC(C)(C#N)c1cccnc1-c1ccc(-c2n[nH]c3ncc(-c4ccc5c(c4)CC[C@@H](N4C6COCC4C6)CC5)cc23)cc1
> 7.00

# iterate: Cc1cccnc1-c1ccc(-c2c[nH]c3ncc(-c4ccc5c(c4)CC[C@@H](N4C6COCC4C6)CC5)cc23)c(F)c1
> 7.00

Follow-up item: COC[C@H]1CCN([C@H]2CCc3ccc(-c4cnc5[nH]nc(-c6ccc(-c7ncccc7C)cc6)c5c4)cc3CC2)C1
> 7.00

Also, COc1cccnc1-c1ccc(-c2c[nH]c3ncc(-c4ccc5c(c4)CC[C@@H](N4C6COCC4C6)CC5)cc23)cc1 please.
> 7.00

Here is the next compound: Cc1ccc(C)c(-c2ccc(-c3n[nH]c4ncc(-c5ccc6c(c5)CC[C@@H](N5C7COC[C@H]5C7)CC6)cc34)c(F)c2)n1
6.00 to 7.00

Similarly, Cc1ccc(C(C)(C)O)nc1-c1ccc(-c2c[nH]c3ncc(-c4ccc5c(c4)CC[C@@H](N4C6COCC4C6)CC5)cc23)cc1 ?
6.00 to 7.00

Now try Cc1cc(F)cnc1-c1ccc(-c2c[nH]c3ncc(-c4ccc5c(c4)CC[C@@H](N4C6COCC4C6)CC5)cc23)cc1 .
6.00 to 7.00

Item: Cc1cnc(C)c(-c2ccc(-c3n[nH]c4ncc(-c5ccc6c(c5)CC[C@@H](N5C7COCC5C7)CC6)cc34)cc2)n1
> 7.00

Same lookup for CN(C)C(=O)c1ccccc1-c1ccc(-c2n[nH]c3ncc(-c4ccc5c(c4)CC[C@@H](N4C6COCC4C6)CC5)cc23)cc1 , please.
> 7.00

Try this compound too: Cc1nccnc1-c1ccc(-c2n[nH]c3ncc(-c4ccc5c(c4)CC[C@@H](N4C6COCC4C6)CC5)cc23)cc1
> 7.00

---

TEST TARGET: recombinant human MER (Homo sapiens)
Sequence (Q12866 21-999): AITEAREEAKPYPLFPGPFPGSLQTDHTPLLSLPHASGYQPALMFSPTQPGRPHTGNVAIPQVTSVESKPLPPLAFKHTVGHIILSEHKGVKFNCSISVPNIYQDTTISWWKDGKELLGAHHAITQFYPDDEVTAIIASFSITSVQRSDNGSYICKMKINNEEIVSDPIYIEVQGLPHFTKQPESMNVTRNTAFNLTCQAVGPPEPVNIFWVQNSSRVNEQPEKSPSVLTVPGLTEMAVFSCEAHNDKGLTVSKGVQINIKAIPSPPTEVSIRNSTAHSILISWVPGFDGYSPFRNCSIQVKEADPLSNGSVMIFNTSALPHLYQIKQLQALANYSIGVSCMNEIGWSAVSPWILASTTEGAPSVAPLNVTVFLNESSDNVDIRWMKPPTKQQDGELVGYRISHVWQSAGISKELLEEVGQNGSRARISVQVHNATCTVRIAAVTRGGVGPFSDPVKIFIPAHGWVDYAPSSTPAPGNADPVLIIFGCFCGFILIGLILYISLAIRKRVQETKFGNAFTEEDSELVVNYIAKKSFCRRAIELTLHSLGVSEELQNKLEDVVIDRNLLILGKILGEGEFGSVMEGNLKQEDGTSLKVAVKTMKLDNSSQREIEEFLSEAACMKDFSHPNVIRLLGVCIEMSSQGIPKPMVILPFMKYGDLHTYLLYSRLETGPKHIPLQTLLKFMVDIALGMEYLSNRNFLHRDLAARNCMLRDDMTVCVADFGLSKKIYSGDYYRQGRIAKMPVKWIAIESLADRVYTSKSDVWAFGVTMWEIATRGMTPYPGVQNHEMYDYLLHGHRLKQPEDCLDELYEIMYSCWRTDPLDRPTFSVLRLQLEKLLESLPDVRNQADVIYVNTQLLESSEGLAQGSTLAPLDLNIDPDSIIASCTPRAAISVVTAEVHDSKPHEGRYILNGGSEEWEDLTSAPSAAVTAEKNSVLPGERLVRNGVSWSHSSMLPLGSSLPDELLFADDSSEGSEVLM
TEST METHOD NOTES: Biochemical potency, HTRF KinEASE-TK kinase assay
CONDITIONS USED: 1 nM MER, 700 μM ATP
pIC50: −log10 of the molar value.
EXPERIMENTAL ENDPOINT: pIC50

I am curious: what pIC50 value has been reported for Cc1cccnc1-c1ccc(-c2c[nH]c3ncc(-c4ccc5c(c4)CC[C@@H](N4C6COCC4C6)CC5)cc23)cc1 ?
> 7.00

Moving on to the next compound: C[C@@H]1CCCN1[C@@]1(C)CCc2ccc(-c3cnc4[nH]nc(-c5ccc(-c6ncnn6C)cc5)c4c3)cc2CC1
> 7.00

Now give it for CCOc1cccnc1-c1ccc(-c2n[nH]c3ncc(-c4ccc5c(c4)CC[C@@H](N4C6COCC4C6)CC5)cc23)cc1 too.
6.00 to 7.00

And the next one, O=C1CCCN1c1cccnc1-c1ccc(-c2n[nH]c3ncc(-c4ccc5c(c4)CC[C@@H](N4C6COCC4C6)CC5)cc23)cc1 ?
6.00 to 7.00

Moving on to Cc1cccnc1-c1ccc(-c2n[nH]c3ncc(-c4ccc5c(c4)CC[C@@H](N[C@H]4CCCOC4)CC5)cc23)cc1
> 7.00

What about this compound? Clc1cccnc1-c1ccc(-c2c[nH]c3ncc(-c4ccc5c(c4)CC[C@@H](N4C6COCC4C6)CC5)cc23)cc1
6.00 to 7.00

Proceed to Cc1nc(-c2ccc(-c3n[nH]c4ncc(-c5ccc6c(c5)CC[C@@H](N5C7COCC5C7)CC6)cc34)cc2)n(C)n1
6.00 to 7.00

Same question for CC(C)(O)c1ccccc1-c1ccc(-c2c[nH]c3ncc(-c4ccc5c(c4)CC[C@@H](N4C6COCC4C6)CC5)cc23)cn1 please.
6.00 to 7.00

Now give it for CC(C)(O)c1cccnc1-c1ccc(-c2n[nH]c3ncc(-c4ccc5c(c4)CC[C@@H](N4C6COCC4C6)CC5)cc23)nc1 too.
< 6.00

Lookup Fc1cc(-c2c[nH]c3ncc(-c4ccc5c(c4)CC[C@@H](N4C6COCC4C6)CC5)cc23)ccc1-c1ccccn1
6.00 to 7.00

Now consider CS(=O)(=O)c1cccnc1-c1ccc(-c2c[nH]c3ncc(-c4ccc5c(c4)CC[C@@H](N4C6COCC4C6)CC5)cc23)cc1 and answer again.
6.00 to 7.00

Next record, please: Cc1cccnc1-c1ccc(-c2n[nH]c3ncc(-c4ccc5c(c4)CC[C@@](C)(N4CCC[C@H]4C)CC5)cc23)cc1
> 7.00

Same lookup for c1ccc(-c2ccc(-c3n[nH]c4ncc(-c5ccc6c(c5)CC[C@@H](N5C7COCC5C7)CC6)cc34)cc2)nc1 , please.
6.00 to 7.00

For Cc1ccnnc1-c1ccc(-c2n[nH]c3ncc(-c4ccc5c(c4)CC[C@@H](N4C6COCC4C6)CC5)cc23)cc1 then?
> 7.00

Next record, please: Cc1cccnc1-n1cc(-c2n[nH]c3ncc(-c4ccc5c(c4)CC[C@@H](N4C6COCC4C6)CC5)cc23)cn1
6.00 to 7.00

What about COCCOc1cccnc1-c1ccc(-c2n[nH]c3ncc(-c4ccc5c(c4)CC[C@@H](N4C6COCC4C6)CC5)cc23)cc1 ?
6.00 to 7.00

Note, next up: Cc1cc(-c2ncccc2C)ccc1-c1n[nH]c2ncc(-c3ccc4c(c3)CC[C@@H](N3C5COCC3C5)CC4)cc12
< 6.00

Same thing, different compound: O=C1OCCN1c1cccnc1-c1ccc(-c2n[nH]c3ncc(-c4ccc5c(c4)CC[C@@H](N4C6COCC4C6)CC5)cc23)cc1
> 7.00

Subsequent entry: Cc1cc(C)c(-c2ccc(-c3n[nH]c4ncc(-c5ccc6c(c5)CC[C@@H](N5C7COCC5C7)CC6)cc34)cc2)nn1
6.00 to 7.00

Next: c1cnc(-c2ccc(-c3n[nH]c4ncc(-c5ccc6c(c5)CC[C@@H](N5C7COCC5C7)CC6)cc34)cc2)c(C2CC2)c1
6.00 to 7.00

# iterate: CS(=O)(=O)c1ccccc1-c1ccc(-c2c[nH]c3ncc(-c4ccc5c(c4)CC[C@@H](N4C6COCC4C6)CC5)cc23)cc1
6.00 to 7.00

Another compound: Cc1ccnnc1-c1ccc(-c2n[nH]c3ncc(-c4ccc5c(c4)CC[C@@H](N4C6COCC4C6)CC5)cc23)nc1
6.00 to 7.00

Subsequent entry: N#Cc1cccnc1-c1ccc(-c2c[nH]c3ncc(-c4ccc5c(c4)CC[C@@H](N4C6COCC4C6)CC5)cc23)cc1
6.00 to 7.00

Field entry: CC(C)(C#N)c1cccnc1-c1ccc(-c2c[nH]c3ncc(-c4ccc5c(c4)CC[C@@H](N4C6COCC4C6)CC5)cc23)cc1
6.00 to 7.00

Continue with c1cc(-c2ccc(-c3c[nH]c4ncc(-c5ccc6c(c5)CC[C@@H](N5C7COCC5C7)CC6)cc34)cc2)ccn1
6.00 to 7.00

Consider next the compound CC(C)(O)c1cccnc1-c1ccc(-c2c[nH]c3ncc(-c4ccc5c(c4)CC[C@@H](N4C6COCC4C6)CC5)cc23)cc1 in the same way.
> 7.00
